Assay: Biodistribution in BxPC3-luc tumor-bearing mice
Assay type: in vivo, BALB/c nu/nu mice
Conditions: female, BALB/c nu/nu, mouse, stomach, iv, 74 kBq, total radioactivity; 10 min post-injection
Where a SMILES comes first, the peptide text is derived from it. The star is where a group is joined. DOTA = O=C(O)CN1CCN(CC(=O)O)CCN(CC(=O)*)CCN(CC(=O)O)CC1; AEEA = NCCOCCOCC(=O)O
Parameter measured: tissue uptake dose at 10 min
Don't forget the unit after the number, please.

What tissue uptake dose at 10 min value was documented for this molecule, CC[C@H](C)[C@H](NC(=O)COCCOCCNC(=O)CN1CCN(CC(=O)O)CCN(CC(=O)O)CCN(CC(=O)O)CC1)C(=O)N1CCC[C@H]1C(=O)N[C@@H](CC(C)C)C(=O)N1CCC[C@H]1C(=O)N1CCC[C@H]1C(=O)N1CCC[C@H]1C(=O)N[C@@H](CCCNC(=N)N)C(=O)N[C@@H](CCCNC(=N)N)C(=O)N1CCC[C@H]1C(=O)N[C@@H](Cc1ccccc1)C(=O)N[C@@H](Cc1ccccc1)C(=O)N[C@@H](CCCCN)C(=O)O [[^67Ga]27, [^67Ga]Ga-DOTA-EG2-IPLPPPRRPFFK, metal not drawn] ({DOTA-AEEA}-IPLPPPRRPFFK-OH) ?
0.19 %ID

----------
Test: Biodistribution in BxPC3-luc tumor-bearing mice
Format: in vivo, BALB/c nu/nu mice
Details: female, BALB/c nu/nu, mouse, large intestine, iv, 74 kBq, total radioactivity; 10 min post-injection, i.v.; read-out: Biodistribution, Large intestine
Where a SMILES comes first, the peptide text is derived from it. The star is where a group is joined. DOTA = O=C(O)CN1CCN(CC(=O)O)CCN(CC(=O)*)CCN(CC(=O)O)CC1; AEEA = NCCOCCOCC(=O)O
Parameter measured: tissue uptake at 10 min
Don't forget the unit after the number, please.

What tissue uptake at 10 min value was documented for this molecule, CC[C@H](C)[C@H](NC(=O)COCCOCCNC(=O)CN1CCN(CC(=O)O)CCN(CC(=O)O)CCN(CC(=O)O)CC1)C(=O)N1CCC[C@H]1C(=O)N[C@@H](CC(C)C)C(=O)N1CCC[C@H]1C(=O)N1CCC[C@H]1C(=O)N1CCC[C@H]1C(=O)N[C@@H](CCCNC(=N)N)C(=O)N[C@@H](CCCNC(=N)N)C(=O)N1CCC[C@H]1C(=O)N[C@@H](Cc1ccccc1)C(=O)N[C@@H](Cc1ccccc1)C(=O)N[C@@H](CCCCN)C(=O)O [[^67Ga]27, [^67Ga]Ga-DOTA-EG2-IPLPPPRRPFFK, metal not drawn] ({DOTA-AEEA}-IPLPPPRRPFFK-OH) ?
0.87 %ID/g

----------
Assay: Biodistribution in BxPC3-luc tumor-bearing mice
Type: in vivo, BALB/c nu/nu mice
Details: female, BALB/c nu/nu, mouse, tumor/blood, iv, 74 kBq, total radioactivity; 1 h post-injection
Where a SMILES comes first, the peptide text is derived from it. The star is where a group is joined. DOTA = O=C(O)CN1CCN(CC(=O)O)CCN(CC(=O)*)CCN(CC(=O)O)CC1; AEEA = NCCOCCOCC(=O)O
Parameter measured: tissue to tissue ratio at 1 h
Give bare numbers.

What tissue to tissue ratio at 1 h value was documented for this compound, CC[C@H](C)[C@H](NC(=O)COCCOCCNC(=O)CN1CCN(CC(=O)O)CCN(CC(=O)O)CCN(CC(=O)O)CC1)C(=O)N1CCC[C@H]1C(=O)N[C@@H](CC(C)C)C(=O)N1CCC[C@H]1C(=O)N1CCC[C@H]1C(=O)N1CCC[C@H]1C(=O)N[C@@H](CCCNC(=N)N)C(=O)N[C@@H](CCCNC(=N)N)C(=O)N1CCC[C@H]1C(=O)N[C@@H](Cc1ccccc1)C(=O)N[C@@H](Cc1ccccc1)C(=O)N[C@@H](CCCCN)C(=O)O [[^67Ga]27, [^67Ga]Ga-DOTA-EG2-IPLPPPRRPFFK, metal not drawn] ({DOTA-AEEA}-IPLPPPRRPFFK-OH) ?
2.61
